assay.target: T1, soluble human FcRn (shFcRn) (human, UniProt P55899 24-297; P61769 21-119)
T1 construct: Biotinylated for the ELISA, amine-coupled to a CM5 chip for SPR; also called biotinylated shFcRn
T1 sequence (P55899 24-297 limits assumed, chain 1 of 2): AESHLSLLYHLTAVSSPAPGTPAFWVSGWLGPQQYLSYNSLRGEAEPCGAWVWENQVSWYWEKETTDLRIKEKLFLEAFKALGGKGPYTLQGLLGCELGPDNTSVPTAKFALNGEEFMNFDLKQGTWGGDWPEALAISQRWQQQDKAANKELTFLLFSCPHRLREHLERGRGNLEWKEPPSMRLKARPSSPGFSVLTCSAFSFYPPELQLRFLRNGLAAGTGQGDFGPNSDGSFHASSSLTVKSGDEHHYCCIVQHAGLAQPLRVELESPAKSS
T1 sequence (P61769 21-119 limits assumed, chain 2 of 2): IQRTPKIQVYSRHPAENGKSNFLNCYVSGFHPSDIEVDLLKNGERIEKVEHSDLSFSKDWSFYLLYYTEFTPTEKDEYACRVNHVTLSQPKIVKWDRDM
method.notes: SPR pH 6
Bridge positions count the residues as written; N and C are the ends. Square brackets hold non-standard residues; d marks the D form. Ends that are not written are not given here. NMeL = CN[C@@H](CC(C)C)C(=O)O; Pen = CC(C)(S)[C@H](N)C(=O)O; Sar = CNCC(=O)O
reported.property: Kd (nM)
Value expressed in nM; do not type the unit.

Read the entry RF[Pen]TGHFG[Sar]YPCNGP-NH2 (disulfide 3-12; N-terminus assumed; SMILES C[C@@H](O)[C@@H]1NC(=O)[C@@H](NC(=O)[C@H](Cc2ccccc2)NC(=O)[C@@H](N)CCCNC(=N)N)C(C)(C)SSC[C@@H](C(=O)N[C@@H](CC(N)=O)C(=O)NCC(=O)N2CCC[C@H]2C(N)=O)NC(=O)[C@@H]2CCCN2C(=O)[C@H](Cc2ccc(O)cc2)NC(=O)CN(C)C(=O)CNC(=O)[C@H](Cc2ccccc2)NC(=O)[C@H](Cc2c[nH]cn2)NC(=O)CNC1=O, copied as printed (RF-Pen-TGHFG-Sar-YPCNGP); a Leu after Sar may be missing in the print) [Peptide No. 147] and write its reported Kd. 58

Read the entry RF[Pen]TGHFG[Sar][NMeL]YPC-NH2 (disulfide 3-13; N-terminus assumed; SMILES CC(C)C[C@H]1C(=O)N[C@@H](Cc2ccc(O)cc2)C(=O)N2CCC[C@H]2C(=O)N[C@H](C(N)=O)CSSC(C)(C)[C@H](NC(=O)[C@H](Cc2ccccc2)NC(=O)[C@@H](N)CCCNC(=N)N)C(=O)N[C@@H]([C@@H](C)O)C(=O)NCC(=O)N[C@@H](Cc2c[nH]cn2)C(=O)N[C@@H](Cc2ccccc2)C(=O)NCC(=O)N(C)CC(=O)N1C) [Peptide No. 235] and write its reported Kd. 31

Read the entry RF[Pen]TGHFGG[NMeL]YPCNGP-NH2 (disulfide 3-13; N-terminus assumed; SMILES CC(C)C[C@H]1C(=O)N[C@@H](Cc2ccc(O)cc2)C(=O)N2CCC[C@H]2C(=O)N[C@H](C(=O)N[C@@H](CC(N)=O)C(=O)NCC(=O)N2CCC[C@H]2C(N)=O)CSSC(C)(C)[C@H](NC(=O)[C@H](Cc2ccccc2)NC(=O)[C@@H](N)CCCNC(=N)N)C(=O)N[C@@H]([C@@H](C)O)C(=O)NCC(=O)N[C@@H](Cc2c[nH]cn2)C(=O)N[C@@H](Cc2ccccc2)C(=O)NCC(=O)NCC(=O)N1C) [Peptide No. 146] and write its reported Kd. 59
